tested system: Bcl-2-related protein A1 (Mus musculus, UniProt Q07440);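 note: confirmatory dose–response counterscreen on Bfl-1, used to check hits from a UBC13 polyubiquitin inhibitor campaign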
Sequence (Q07440 whole entry): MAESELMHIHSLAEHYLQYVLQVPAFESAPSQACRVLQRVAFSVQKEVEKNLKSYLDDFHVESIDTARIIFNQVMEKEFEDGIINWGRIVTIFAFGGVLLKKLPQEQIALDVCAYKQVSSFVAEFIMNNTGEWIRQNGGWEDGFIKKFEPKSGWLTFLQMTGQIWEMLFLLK
Type: functional
The source made the active and inactive calls.
Outcomes: 1 (yes) = active, 0 (no) = inactive

given smiles	discrete label
O=C(C[n+]1ccc(CCSc2ccc(F)cc2)cc1)c1ccccc1	1 (yes)
COc1cc2nc(Nc3ccc(C)c(Cl)c3)nc(N)c2cc1OC	1 (yes)
CCN1CCN(Cc2ccc(NC(=O)c3cc(NC(=O)C(=O)c4c[nH]c5ccccc45)cc(OC)c3)cc2C(F)(F)F)CC1	0 (no)
O=C(c1ccc(-c2cc(O)c3ncccc3c2)cc1)N1CCNCC1	1 (yes)

====

tested system: Polyadenylate-binding protein 1 (Homo sapiens)
Sequence (P11940 whole entry): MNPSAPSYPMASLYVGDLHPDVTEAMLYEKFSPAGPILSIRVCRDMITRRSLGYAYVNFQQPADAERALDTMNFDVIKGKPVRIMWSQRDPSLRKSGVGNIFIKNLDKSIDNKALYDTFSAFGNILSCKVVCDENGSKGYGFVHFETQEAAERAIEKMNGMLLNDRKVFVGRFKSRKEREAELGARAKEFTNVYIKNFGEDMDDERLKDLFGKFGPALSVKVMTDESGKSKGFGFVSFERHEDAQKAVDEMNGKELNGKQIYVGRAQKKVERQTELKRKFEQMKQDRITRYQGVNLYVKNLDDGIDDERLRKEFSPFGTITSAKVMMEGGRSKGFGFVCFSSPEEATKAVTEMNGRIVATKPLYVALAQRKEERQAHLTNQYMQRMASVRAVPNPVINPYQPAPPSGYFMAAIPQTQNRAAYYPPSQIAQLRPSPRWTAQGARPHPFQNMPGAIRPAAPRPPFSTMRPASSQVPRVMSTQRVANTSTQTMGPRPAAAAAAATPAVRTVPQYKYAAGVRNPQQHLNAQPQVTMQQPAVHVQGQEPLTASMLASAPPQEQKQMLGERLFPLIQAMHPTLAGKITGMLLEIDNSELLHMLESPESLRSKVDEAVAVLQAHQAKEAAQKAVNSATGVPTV
assay: PABP1 MLLE–PAM2 interaction inhibitors, dose response, miRNA deadenylation inhibitor project, biochemical, fluorescence polarization, Cy5-PAM2 peptide, secondary (AID 602260)
Type: functional
experimental conditions: read-out: IC50_Mean
The source made the active and inactive calls.
Each item that follows carries a reported IC50.
experimental endpoint: IC50

compound	reported result
O=C(O)CCCN1C(=O)C(O)=C(C(=O)c2ccc(Cl)cc2)C1c1ccccc1 (stereo unspecified)	> 66 µM (inactive)
CN(CCC(=O)c1ccccc1)CCC(=O)c1ccccc1	> 66 µM (inactive)
CCc1ccc(OS(=O)(=O)c2cn(C)c(=O)n(C)c2=O)cc1	> 66 µM (inactive)
Cc1ccc(N2C(S)=NC3c4cc(Cl)ccc4OC2(C)C3C(=O)N(C)C)cc1 (stereo unspecified)	> 66 µM (inactive)
COc1cc(NC(C)CCCNC(C)C)c2ncccc2c1OC (stereo unspecified)	> 66 µM (inactive)
Nc1cc(Nc2ccc(Br)cc2)nc(N)n1	> 66 µM (inactive)

====

System: INS1
assay: beta cell apoptosis inhibitors, cytokine rescue, dose response, luminescence, retest (AID 449756);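 note: cell death triggered by IL-1 beta plus TNF-alpha plus IFN-gamma mixture; protective hits raise ATP signal compared with cytokine alone wells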
Type: functional, cell-based
experimental conditions: Rattus norvegicus
The source made the active and inactive calls.

given smiles	AC50
CCCOc1ccc(/C=N/NC(=S)Nc2ccccc2[N+](=O)[O-])c(O)c1	1280 nM (active)
COc1cccc(COc2cc3ccccc3nc2C)c1	2610 nM (active)
C/C(=N\NC(=O)C(c1ccccc1)c1ccccc1)c1ccccn1	1300 nM (active)
Cc1[nH]c2ccccc2c1CN1CCN(c2ccccn2)CC1	4210 nM (active)
COC(=O)c1sc(-c2ccc(C(C)(C)C)cc2)cc1NC(=O)/C=C/C(=O)O	4680 nM (active)
O=C(N/N=C/c1ccccc1O)c1cccc(C(F)(F)F)c1	1110 nM (active)
Cn1cc(CNCc2ccc(OC(F)(F)F)cc2)c(-c2ccc3c(c2)OCCO3)n1	1040 nM (active)

====

tested system: Dual specificity tyrosine-phosphorylation-regulated kinase 1A (Rattus norvegicus, UniProt Q63470)
Assay type: biochemical, Homo sapiens
Calls of active or inactive are those of the source.
Reported AC50 values follow for various compounds

given smiles	AC50
Oc1ccc(/C=N/n2c(S)nnc2-c2ccccc2)cc1Br	11.8 µM (active)
O=C(/C=C/c1ccccc1)Nc1cccnc1Oc1ccccc1F	11.1 µM (active)
Cc1ccc(N2CN=c3s/c(=C\c4ccccn4)c(=O)n3C2)cc1	3.58 µM (active)
Oc1ccc(/C=N/n2c(-c3ccccc3)n[nH]c2=S)cc1	4.2 µM (active)
